Test system: PTC (colon)
assay summary: MTT cytotoxicity assay, 72 hours (Example 13)
Format: cell-based, human
particulars: 100 nM
Non-standard residues stand in square brackets, D forms with d. Residues, ends and D or L forms follow the SMILES beside them. Aib = CC(C)(N)C(=O)O
Parameter Percent Cytotoxicity: see the listing below.
Give a bare numeral; the unit % is implied.

- compound: "CC[C@H](C)[C@H](NC(=O)[C@H](Cc1c[nH]cn1)NC(=O)C(C)(C)NC(=O)[C@@H](NC(=O)[C@H](C)NC(=O)[C@H](Cc1c[nH]c2ccccc12)NC(=O)[C@H](CCC(N)=O)NC(=O)[C@H](N)Cc1ccccc1)C(C)C)C(N)=O [SEQ ID: 7, D-Phe-Gln-Trp-Ala-Val-Aib-His-Ile-NH2] (H-[dF]QWAV[Aib]HI-NH2; N-terminus assumed)"
  readout unit: "%"
  Percent Cytotoxicity: 9.3
- compound: "CCCC(CCC)(NC(=O)[C@@H](NC(=O)[C@H](C)NC(=O)[C@@H](Cc1c[nH]c2ccccc12)NC(=O)[C@H](CCC(N)=O)NC(=O)[C@H](N)Cc1ccccc1)C(C)C)C(=O)N[C@@H](Cc1c[nH]cn1)C(=O)N[C@@H](CC(C)C)C(N)=O"
  readout unit: "%"
  Percent Cytotoxicity: 8.7
- compound: "CC(C)C[C@H](NC(=O)[C@H](Cc1c[nH]cn1)NC(=O)C(C)(C)NC(=O)[C@@H](NC(=O)[C@H](C)NC(=O)[C@@H](Cc1c[nH]c2ccccc12)NC(=O)[C@H](CCC(N)=O)NC(=O)[C@H](N)Cc1ccccc1)C(C)C)C(N)=O [SEQ ID: 5, D-Phe-Gln-D-Trp-Ala-Val-Aib-His-Leu-NH2] (H-[dF]Q[dW]AV[Aib]HL-NH2; N-terminus assumed)"
  readout unit: "%"
  Percent Cytotoxicity: 20.4

Let's switch to this compound now.
Percent Cytotoxicity measured on CC(C)C[C@H](NC(=O)[C@H](Cc1c[nH]cn1)NC(=O)CNC(=O)[C@@H](NC(=O)C(C)(C)NC(=O)[C@H](Cc1c[nH]c2ccccc12)NC(=O)[C@H](CCC(N)=O)NC(=O)[C@H](N)Cc1ccccc1)C(C)C)C(N)=O [SEQ ID: 4, D-Phe-Gln-Trp-Aib-Val-Gly-His-Leu-NH2] (H-[dF]QW[Aib]VGHL-NH2; N-terminus assumed) = 9.8

---

Test system: PA-1 (ovary)
assay summary: MTT cytotoxicity assay, 72 hours (Example 13)
Assay type: cell-based, human
particulars: PA-1, 1 nM
Description: The cytotoxic activity of other synthesized bombesin analogs was tested on eight human tumor cell lines namely HT-29, SW620, PTC (all colon), PA-1 (ovary), A549 (lung), HBL100(breast), MOLT-4 (leukemia) and DU145 (prostate). The tumor cells were collected at exponential growth phase and resuspended in medium (1.5×10^6) cells/ml in RPMI 1640 containing 10% FBS). 150 μl of medium was added to the wells of a 96-well tissue culture plate (Nunc, Denmark) followed by 30 μl of cell suspension. […]
measure name: Percent Cytotoxicity (%)
Unit % implied. Number only.

Query CCCC(CCC)(NC(=O)[C@@H](NC(=O)[C@H](C)NC(=O)[C@@H](Cc1c[nH]c2ccccc12)NC(=O)[C@H](CCC(N)=O)NC(=O)[C@H](N)Cc1ccccc1)C(C)C)C(=O)N[C@@H](Cc1c[nH]cn1)C(=O)N[C@@H](CC(C)C)C(N)=O on PA-1 (ovary); Percent Cytotoxicity returned: 23.8
